Tested on: human ether-à-go-go-related gene (hERG) potassium channel (human);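 further: peak tail current of the secondary pulse compared with the same well before compound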
Sequence (Q12809 whole entry, looked up): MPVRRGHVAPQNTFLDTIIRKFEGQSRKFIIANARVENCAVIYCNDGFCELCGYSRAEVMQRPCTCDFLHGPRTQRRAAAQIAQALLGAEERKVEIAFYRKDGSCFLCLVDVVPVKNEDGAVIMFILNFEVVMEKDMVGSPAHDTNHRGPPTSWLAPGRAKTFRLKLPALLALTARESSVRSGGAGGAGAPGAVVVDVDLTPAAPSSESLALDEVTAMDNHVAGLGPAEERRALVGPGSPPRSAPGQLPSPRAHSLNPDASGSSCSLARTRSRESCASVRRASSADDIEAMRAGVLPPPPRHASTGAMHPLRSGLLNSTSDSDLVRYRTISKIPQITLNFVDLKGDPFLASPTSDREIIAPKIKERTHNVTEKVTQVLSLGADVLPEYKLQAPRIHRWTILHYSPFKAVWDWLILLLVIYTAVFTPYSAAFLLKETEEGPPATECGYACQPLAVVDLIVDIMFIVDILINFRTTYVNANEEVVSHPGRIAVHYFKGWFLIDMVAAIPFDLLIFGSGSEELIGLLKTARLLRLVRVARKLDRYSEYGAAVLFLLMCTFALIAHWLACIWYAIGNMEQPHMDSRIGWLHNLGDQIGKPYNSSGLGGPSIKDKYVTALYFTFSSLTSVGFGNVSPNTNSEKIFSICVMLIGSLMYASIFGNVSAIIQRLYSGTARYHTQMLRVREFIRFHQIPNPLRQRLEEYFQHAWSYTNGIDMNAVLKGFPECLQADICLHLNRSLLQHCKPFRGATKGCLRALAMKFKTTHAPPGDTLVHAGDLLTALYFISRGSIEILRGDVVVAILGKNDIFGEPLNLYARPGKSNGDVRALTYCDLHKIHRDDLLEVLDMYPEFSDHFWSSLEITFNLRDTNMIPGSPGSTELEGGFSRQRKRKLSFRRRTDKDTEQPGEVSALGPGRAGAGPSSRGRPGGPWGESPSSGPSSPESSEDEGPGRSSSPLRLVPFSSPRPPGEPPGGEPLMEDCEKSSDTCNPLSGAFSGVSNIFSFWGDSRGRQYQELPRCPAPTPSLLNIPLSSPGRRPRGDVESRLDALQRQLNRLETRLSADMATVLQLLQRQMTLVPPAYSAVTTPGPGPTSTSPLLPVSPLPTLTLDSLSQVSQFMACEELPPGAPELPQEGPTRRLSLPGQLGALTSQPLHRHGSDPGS
Test: primary screen, population patch clamp on CHO cells stably expressing hERG; higher = less effect of the substance
The campaign covered roughly 310,000 compounds. About 14,000 (4.5%) showed an effect of 50% or more. Effects have a minus sign here. The list comes from a sample in which strong results are over-represented; it also holds close analogues and randomly drawn compounds.
Each entry below lists one item and its recorded hERG current change (%, negative = inhibition) at 10uM value.
Reported property: hERG current change (%, negative = inhibition) at 10uM (%)

{"columns": ["Compound", "Tested on", "Unit symbol", "Experimental value"],
 "data": [
  ["O=C(CCCc1c[nH]c2ccccc12)N[C@@H](Cc1c[nH]c2ccccc12)C(=O)O", "human ether-à-go-go-related gene (hERG) potassium channel (human)", "%", 18.9],
  ["O=C(Nc1ccc([N+](=O)[O-])cc1)Nc1nc(-c2ccc(Cl)s2)cs1", "human ether-à-go-go-related gene (hERG) potassium channel (human)", "%", 25.7],
  ["COc1ccc(CCNC(=O)C2CCN(S(=O)(=O)c3ccc(NC(C)=O)cc3)CC2)cc1OC", "human ether-à-go-go-related gene (hERG) potassium channel (human)", "%", 9.83],
  ["O=C(NCCC1=CCCCC1)C1CCN(S(=O)(=O)c2cccs2)CC1", "human ether-à-go-go-related gene (hERG) potassium channel (human)", "%", -29.2],
  ["COc1ccccc1-c1nnc(SCc2nc3ccccc3s2)n1C", "human ether-à-go-go-related gene (hERG) potassium channel (human)", "%", -17],
  ["OC[C@@H]1CCCN1Cc1cn(-c2ccccc2)nc1-c1ccc2c(c1)OCO2", "human ether-à-go-go-related gene (hERG) potassium channel (human)", "%", -24.2],
  ["COCCC1CCCCN1Cc1cn(-c2ccccc2)nc1-c1ccc2c(c1)OCO2 (stereo not drawn)", "human ether-à-go-go-related gene (hERG) potassium channel (human)", "%", -55.8],
  ["O=C(c1ccccc1[N+](=O)[O-])N1CCCC(C(=O)N2CCCCCC2)C1 (stereo not drawn)", "human ether-à-go-go-related gene (hERG) potassium channel (human)", "%", 10.6],
  ["CCn1cc(C(=O)NCCc2ccccc2)c(=O)c2cc(S(=O)(=O)N(C)C)ccc21", "human ether-à-go-go-related gene (hERG) potassium channel (human)", "%", 7.05]
]}
